Would you kindly list inhibition for each of these compounds?
- TARGET_SYSTEM: Tyrosine-protein phosphatase non-receptor type 22 (Homo sapiens)
- ASSAY_NAME: PTPN22 lymphoid phosphatase activity blockers – biochemical, fluorescence intensity, uHTS (AID 1779);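 note: plate controls were vehicle with enzyme for no effect and no enzyme for full effect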
- REPORTED_CONDITIONS: recombinant LYP phosphatase, at 11.5 µM, active compounds read high
The campaign covered roughly 290,000 compounds. About 160 (0.055%) were called active. The sample holds actives, similar compounds and a random draw of the others, so the mix is not that of the screen.
Answers are plain numbers, in %.

Some compounds with recorded inhibition:
COc1cc(/C=N/n2c(-c3ccccc3)n[nH]c2=S)cc(OC)c1OC; -1.8
COc1cc(OC)cc(C(=O)NCCN2C(=O)S/C(=C\c3cccs3)C2=O)c1; 0.8
COc1cc(/C=N/NC(=O)c2cc(-c3ccccc3OC(C)C)nc3ccccc23)ccc1O; 4.4
Cc1cccc(N2CCN(C(=O)Cn3c(=O)[nH]c4ccsc4c3=O)CC2C)c1 (stereo unspecified); -8.5
COc1cc(/C=N/NC(=O)c2cc(-c3ccccc3)nc3ccccc23)ccc1O; -1.5
Cc1csc2ncc(C(=O)N3CCCc4ccccc43)c(=O)n12; -4
COc1ccc(-c2cc(C)no2)cc1S(=O)(=O)N1CCN(c2ccccn2)CC1; -10.6
CC(=O)c1sc(NC(=O)C(C)Oc2ccc3c(C)cc(=O)oc3c2)nc1C (stereo unspecified); -5.1
CCC(=O)N1CCc2nc(-c3ccccc3)sc2C1; -5.1
N#CCN(CC#N)C(=O)C1c2ccccc2Oc2ccccc21; -3.9

Consider now this further compound.
Note to self: inhibition recorded for CC1Cc2ccccc2N1C(=O)CCn1c(=O)oc2ccccc21 (stereo unspecified) was 5.2

====

Would you kindly list inhibition for each of these compounds?
- TARGET_SYSTEM: Tyrosine-protein phosphatase non-receptor type 22 (Homo sapiens)
- ASSAY_NAME: PTPN22 lymphoid phosphatase activity blockers – biochemical, fluorescence intensity, uHTS (AID 1779);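 note: plate controls were vehicle with enzyme for no effect and no enzyme for full effect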
- REPORTED_CONDITIONS: recombinant LYP phosphatase, at 11.5 µM, active compounds read high
The whole screen tested about 290,000 compounds, of which about 160 (0.055%) were called active. The sample as a whole holds a higher share of actives than the screen did.
Answers are plain numbers, in %.

Some compounds with recorded inhibition:
O=C1C=C(NCc2ccccc2)CCC1; -5.3
COc1cccc(CNC(=O)c2csc3c2CCCC3)c1; -8.1
CS(=O)(=O)N1CCc2cc(C(=O)NC3CC3)ccc21; -10.8
COc1ccc(OC)c2c1nc1n2CCS1; -2.7
CC(=O)/C=C(\C)NCCNc1c(F)c(F)c(CO)c(F)c1F; -3.3

Consider now this further compound.
The reported Tyrosine-protein phosphatase non-receptor type 22 (Homo sapiens) inhibition of "CCOc1ccc(Nc2nc(N)c([N+](=O)[O-])c(N3CCN(CC)CC3)n2)cc1" is -3.7

====

- TARGET_SYSTEM: Tyrosine-protein phosphatase non-receptor type 22 (Homo sapiens) (UniProt Q9Y2R2)
- Sequence (Q9Y2R2 whole entry, looked up): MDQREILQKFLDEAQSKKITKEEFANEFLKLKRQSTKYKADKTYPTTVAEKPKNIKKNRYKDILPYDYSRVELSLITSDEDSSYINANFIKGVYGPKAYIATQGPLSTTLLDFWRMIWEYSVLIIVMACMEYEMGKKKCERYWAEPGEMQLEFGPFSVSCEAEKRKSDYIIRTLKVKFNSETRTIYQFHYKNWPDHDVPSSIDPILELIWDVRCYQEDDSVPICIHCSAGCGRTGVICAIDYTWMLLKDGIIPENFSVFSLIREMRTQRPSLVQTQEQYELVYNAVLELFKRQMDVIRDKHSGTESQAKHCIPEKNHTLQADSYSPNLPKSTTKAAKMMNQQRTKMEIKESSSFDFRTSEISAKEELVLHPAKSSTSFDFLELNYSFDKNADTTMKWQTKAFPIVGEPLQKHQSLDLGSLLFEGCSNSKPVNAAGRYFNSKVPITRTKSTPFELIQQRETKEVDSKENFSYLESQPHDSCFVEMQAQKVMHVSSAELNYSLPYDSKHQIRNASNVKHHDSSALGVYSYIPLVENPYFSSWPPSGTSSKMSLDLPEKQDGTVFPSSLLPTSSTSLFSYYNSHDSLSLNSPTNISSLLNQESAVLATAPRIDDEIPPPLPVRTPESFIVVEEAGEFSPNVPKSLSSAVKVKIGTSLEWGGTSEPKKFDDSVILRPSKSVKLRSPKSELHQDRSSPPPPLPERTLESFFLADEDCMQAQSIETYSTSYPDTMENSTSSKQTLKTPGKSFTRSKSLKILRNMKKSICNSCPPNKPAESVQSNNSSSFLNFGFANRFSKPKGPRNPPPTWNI
- ASSAY_NAME: PTPN22 lymphoid phosphatase activity blockers – biochemical, fluorescence intensity, uHTS (AID 1779);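 note: plate controls were vehicle with enzyme for no effect and no enzyme for full effect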
- REPORTED_CONDITIONS: recombinant LYP phosphatase, at 11.5 µM, active compounds read high
Screen size: about 290,000 compounds; about 160 (0.055%) were called active. Only a selection was taken, and actives are over-represented in it overall.
MEASUREMENT_KIND: inhibition (%)
One number for each entry, in %.

Some compounds with recorded inhibition:
O=C1C2C(C(=O)N1/N=C/c1cc([N+](=O)[O-])ccc1O)C1C=CC2C12CC2 (stereo unspecified); 0.1
O=C1OC(c2ccc(Br)cc2)=N/C1=C\c1ccco1; 63.7
CC(C)(C)c1ccc(C2(C)NC(=O)N(CC(=O)NCc3cccs3)C2=O)cc1 (stereo unspecified); -8.4
COc1ccc(-c2nnn(CC(=O)N(CCCO)C(C(=O)NC3CCCC3)c3ccncc3)n2)cc1 (stereo unspecified); -4.7
O=C1C2C(C(=O)N1/N=C/c1ccc([N+](=O)[O-])o1)C1C=CC2C12CC2 (stereo unspecified); -11.3

Answer for every listed entry: what is its inhibition? The entries follow.
1. Cc1nnc(C)n1/N=C/c1ccccc1
2. COc1ccc(Cc2nnc(NC(=O)c3ccccc3Cl)s2)cc1OC
3. O=C1C2C(C(=O)N1/N=C/c1cccc([N+](=O)[O-])c1)C1C=CC2C12CC2 (stereo unspecified)
4. CCc1nc(CNC(=O)c2cc(OC)c(OC)c(OC)c2)no1
5. CC1=N/C(=C/c2ccco2)C(=O)O1

1. -11
2. -9.8
3. 51.6
4. -4.2
5. -3.8

The reported Tyrosine-protein phosphatase non-receptor type 22 (Homo sapiens) (UniProt Q9Y2R2) inhibition of "O=C1NC(c2ccc(Br)cc2)=N/C1=C/c1ccco1" is 9.9
